The measured values listed here are drawn from paper PMC4254624.

# target_under_test: PaSecA (Pseudomonas aeruginosa, UniProt Q9LCT3)
# Sequence (Q9LCT3 whole entry): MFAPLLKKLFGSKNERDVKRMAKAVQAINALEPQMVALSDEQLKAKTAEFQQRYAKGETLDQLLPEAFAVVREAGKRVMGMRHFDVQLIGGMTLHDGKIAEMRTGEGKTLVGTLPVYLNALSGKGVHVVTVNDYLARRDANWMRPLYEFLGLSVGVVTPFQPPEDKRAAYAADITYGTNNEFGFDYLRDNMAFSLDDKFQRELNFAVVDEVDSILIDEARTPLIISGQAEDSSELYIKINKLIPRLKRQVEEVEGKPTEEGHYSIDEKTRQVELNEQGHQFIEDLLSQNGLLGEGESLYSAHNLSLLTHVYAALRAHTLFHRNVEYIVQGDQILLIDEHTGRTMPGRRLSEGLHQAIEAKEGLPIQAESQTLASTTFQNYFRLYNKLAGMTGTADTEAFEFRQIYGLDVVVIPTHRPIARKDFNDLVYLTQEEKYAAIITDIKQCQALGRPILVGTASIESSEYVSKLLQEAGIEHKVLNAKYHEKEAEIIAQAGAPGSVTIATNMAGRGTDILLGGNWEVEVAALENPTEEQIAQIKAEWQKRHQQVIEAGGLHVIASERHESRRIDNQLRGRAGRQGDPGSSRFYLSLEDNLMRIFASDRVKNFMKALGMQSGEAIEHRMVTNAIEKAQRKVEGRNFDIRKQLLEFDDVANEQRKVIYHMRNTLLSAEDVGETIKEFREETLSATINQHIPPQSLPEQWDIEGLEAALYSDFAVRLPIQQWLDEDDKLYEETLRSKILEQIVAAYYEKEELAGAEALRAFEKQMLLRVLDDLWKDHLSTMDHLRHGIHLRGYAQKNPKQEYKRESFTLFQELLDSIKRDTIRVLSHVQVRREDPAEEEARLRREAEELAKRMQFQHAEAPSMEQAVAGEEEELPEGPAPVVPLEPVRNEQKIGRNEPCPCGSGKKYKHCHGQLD
# procedure_details: SecA ion channel activity in Xenopus oocytes
# Assay type: cell-based, P. aeruginosa
# condition_notes: read-out: IC50 inhibition of SecA channel activity in oocytes; PaSecA, L+SecYEG +SecDF•C
assay_readout: IC50 (nM)

molecule	target_under_test	val
O=C1OC2(c3cc(I)c(O)c(I)c3Oc3c2cc(I)c(O)c3I)c2c(Cl)c(Cl)c(Cl)c(Cl)c21	PaSecA (Pseudomonas aeruginosa, UniProt Q9LCT3)	2000
